tested on: K4 kissing-loop RNA reporter; test: apparent KD of K4 kissing-loop reporter; higher = weaker reporter binding; details: Eterna round: R107; input ligand: none;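 further: bound reporter read as fluorescence of individual clusters on recovered sequencing chips by microscopy, with normalized cluster intensities fitted with a binding model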
Can you tell me apparent KD of K4 kissing-loop reporter for the items I'm about to list?
One number for each entry, in nM.

Field: example entries. Status: answers known.
UGAUUGCCAGUGAUGUUGGCAGGGUCUGAAGGAGCGCGUGAAAACGCAGGUAGGUCGCAGUAUGGUGCCAAUUGAUCGAAAGAUC [KL-XArg-A3]	223
UAUGUACACUGGUAGUGGUACAUCGAGGAAGGAGCGUGCGCAGGCACAGGUAGGUCGCCUCAGCGCACGAGUGAUGUUCGUGGGC [Ceaqu]	358

--- query ---
(Q) Data request, read-out apparent KD of K4 kissing-loop reporter, for AGCAGUCAACUCGAAACCAUCGAAGAUGGUCGAGGACCGGUACGGCCGCCACUCGGAGUGAUGUUCCGAAGACUGCAAAAUAAAA [#SwitchBubble 14]
(A) 307

----------
Can you tell me apparent KD of MS2 coat protein for the items I'm about to list?
test system: MS2 coat protein; experiment: apparent KD of MS2 coat protein; higher = weaker reporter binding; conditions: Eterna round: R107; input ligand: none
Give bare numbers, in µM.

UUAAUCUUUAUUGAAAACAAUAAAGCAGAAGGAGCGUGAUAAAACACAGGUAGGUCGCUGAAGGGAACAUGAGGAUCACCCAUGU [AstrosSSArgA#13]	0.0266

Hi team, please reply with apparent KD of MS2 coat protein for each item in this list.
1. UUUUUUUUGGGAAGGAGCGGGAACAUGUGGAUCUCCCAUGUACAUGAGGAUCACCCAUGUACCCAGGUAGGUCGCUCAUUUUUUU [Exclusion - Arginine B]
2. UAACAUGAGGAUCACCCAUGUUUAGAUGAACGAGGACCGGUACGGCCGCCACUCGAUAAGUGGAAAGAGCGAGGGAUUGUAUGCU [Same State Trp A GF4]
3. AAUAAUAAGGCGGCCGCCACUAAACAUGAGGAUCACCCAUGUCUCGAGCGCAUGCAUAAGGGAUGUAGGACCGGGCCAAUAAUAA [Exclusion - Tryptophan B (Freestyle 2)]

(A)
1. 0.0258
2. 0.0124
3. 0.0297

----------
tested on: MS2 coat protein; test: apparent KD of MS2 coat protein; designed switch direction (-1 OFF switch, 1 ON switch): -1; higher = weaker reporter binding; conditions: input ligand: FMN 200 uM
quantity-name: apparent KD of MS2 coat protein (nM)
Answers are plain numbers, in nM.

Field: example entries. Status: answers known.
UCGGAUUCAGGAUAUUGCACAUGUGACAUGAGGAUCACCCAUGUUCCCUUAUUUGGUCACCAAGAAGGGAGUUUAU [Eternabot (L2) Solution 34] (Eterna round: R97, puzzle: Exclusion 5)	157
AGCGAAUAAGCAGGAUAUGAGAAUAGAUAGAGCUCAGAAGGGCUACAUGAGGAUCACCCAUGUAAAGUCUUGAGGCUGCGUGGU [Prohibition 13 - Jieux - Exclusion NG 1] (Eterna round: R96, puzzle: Exclusion NG 1)	22.5

--- query ---
(Q) Data request, read-out apparent KD of MS2 coat protein, for UAAACAAGCUAAAGAUCCUACAUGAGGAUCACCCAUGUGCUCGUCUUGUAACGUACUGUGACGAAAGUCACGGUACG [JL TOV1 3.10] (Eterna round: R97, puzzle: Sensor, turn-off variant 1)
(A) 194
